Test system: PPARg:RXRa 270nM:90nM, anti-RXR (NR concentration 270 nM, RXRa partner concentration 90 nM)
Test: PBM binding z-score (relative to random genomic background probes); higher = stronger binding; sequences stand for … in GC…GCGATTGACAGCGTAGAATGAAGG
readout: PBM binding z-score
Form rule: numeric answer, no unit written next to it.

## Input What PBM binding z-score value was documented for this sequence, CGAACTTGGTCAAGGACAGTGAATCTCCGCACGC ?
## Output 0.0325

## Input What PBM binding z-score value was documented for this sequence, CCTCGGAGGACAACAGGAGGCCAGAGCTGCCAGA ?
## Output -0.942

## Input What PBM binding z-score value was documented for this sequence, TCTTATAGATCAACAGGAGGTTAAGAAAGATCGA ?
## Output 2.08

## Input What PBM binding z-score value was documented for this sequence, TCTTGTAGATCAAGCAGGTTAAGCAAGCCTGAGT ?
## Output 1.09

## Input What PBM binding z-score value was documented for this sequence, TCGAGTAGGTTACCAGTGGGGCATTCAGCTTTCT ?
## Output 1.36

## Input What PBM binding z-score value was documented for this sequence, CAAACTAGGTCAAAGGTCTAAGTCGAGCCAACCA ?
## Output 10

## Input What PBM binding z-score value was documented for this sequence, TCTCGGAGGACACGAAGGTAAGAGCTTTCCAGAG ?
## Output 0.91

----------
Answer each item with its documented PBM binding z-score.
Tested on: RARa homodimer (NR concentration 270 nM)
Test: PBM binding z-score (relative to random genomic background probes); higher = stronger binding; sequences stand for … in GC…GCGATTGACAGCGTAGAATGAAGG
Form rule: numeric answer, no unit written next to it.

## Input What PBM binding z-score value was documented for this sequence, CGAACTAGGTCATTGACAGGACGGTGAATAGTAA ?
## Output 0.0523

## Input What PBM binding z-score value was documented for this sequence, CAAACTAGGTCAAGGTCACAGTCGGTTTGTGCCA ?
## Output 1.99

## Input What PBM binding z-score value was documented for this sequence, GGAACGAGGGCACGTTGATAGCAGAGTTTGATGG ?
## Output -0.225

## Input What PBM binding z-score value was documented for this sequence, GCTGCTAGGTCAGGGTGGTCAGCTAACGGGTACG ?
## Output 0.165

## Input What PBM binding z-score value was documented for this sequence, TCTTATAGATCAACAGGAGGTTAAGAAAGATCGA ?
## Output 0.64

## Input What PBM binding z-score value was documented for this sequence, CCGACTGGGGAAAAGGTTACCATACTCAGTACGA ?
## Output 0.0679

----------
Test system: PPARg homodimer (NR concentration 180 nM)
Test: PBM binding z-score (relative to random genomic background probes); higher = stronger binding; sequences stand for … in GC…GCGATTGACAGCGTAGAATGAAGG
Label no if PBM binding z-score falls below 1; label yes in every other case.

## Input Check if PBM binding z-score >= 1 (inclusive). Item: AGAATGAGGTTATACGTTGATCAGGGAAGAAAGT
## Output yes

## Input Check if PBM binding z-score >= 1 (inclusive). Item: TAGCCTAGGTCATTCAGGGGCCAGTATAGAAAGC
## Output yes

## Input Check if PBM binding z-score >= 1 (inclusive). Item: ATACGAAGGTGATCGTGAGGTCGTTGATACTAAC
## Output no

## Input Check if PBM binding z-score >= 1 (inclusive). Item: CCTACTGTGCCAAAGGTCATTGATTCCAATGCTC
## Output yes

## Input Check if PBM binding z-score >= 1 (inclusive). Item: ATCTCTAGGTAAGACTAAGTTCAGTGAAGAACGC
## Output yes

## Input Check if PBM binding z-score >= 1 (inclusive). Item: CTCGAAAGGTCGTGCTGAGGTGAGTATACCAAAC
## Output yes

## Input Check if PBM binding z-score >= 1 (inclusive). Item: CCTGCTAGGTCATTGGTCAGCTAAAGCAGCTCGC
## Output yes

## Input Check if PBM binding z-score >= 1 (inclusive). Item: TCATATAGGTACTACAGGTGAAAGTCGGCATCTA
## Output no

## Input Check if PBM binding z-score >= 1 (inclusive). Item: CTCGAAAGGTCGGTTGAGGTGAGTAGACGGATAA
## Output no

## Input Check if PBM binding z-score >= 1 (inclusive). Item: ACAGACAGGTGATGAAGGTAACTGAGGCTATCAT
## Output no

## Input Check if PBM binding z-score >= 1 (inclusive). Item: TCGAGTAGGTTAGGGGCATTCTGAATGGCGTCGA
## Output no

## Input Check if PBM binding z-score >= 1 (inclusive). Item: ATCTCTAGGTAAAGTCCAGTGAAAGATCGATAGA
## Output no

## Input Check if PBM binding z-score >= 1 (inclusive). Item: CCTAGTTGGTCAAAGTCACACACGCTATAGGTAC
## Output yes

## Input Check if PBM binding z-score >= 1 (inclusive). Item: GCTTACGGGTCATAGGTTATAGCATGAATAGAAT
## Output yes

## Input Check if PBM binding z-score >= 1 (inclusive). Item: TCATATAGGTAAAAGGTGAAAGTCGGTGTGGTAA
## Output yes

## Input Check if PBM binding z-score >= 1 (inclusive). Item: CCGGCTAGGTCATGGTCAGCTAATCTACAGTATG
## Output yes

## Input Check if PBM binding z-score >= 1 (inclusive). Item: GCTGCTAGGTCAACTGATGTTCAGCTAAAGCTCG
## Output yes

## Input Check if PBM binding z-score >= 1 (inclusive). Item: CTAACGAGGGCATGAGTTGATAGCAAATGCCGAT
## Output no

## Input Check if PBM binding z-score >= 1 (inclusive). Item: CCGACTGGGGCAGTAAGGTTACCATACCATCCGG
## Output no

----------
Test system: LXRb homodimer (NR concentration 270 nM)
Test: PBM binding z-score (relative to random genomic background probes); higher = stronger binding; sequences stand for … in GC…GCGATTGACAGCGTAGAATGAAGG
readout: PBM binding z-score

## Input What PBM binding z-score value was documented for this sequence, AGTCAAAGTTCCGGACGAGGTAACGTAAAGCACG ?
## Output -0.695

## Input What PBM binding z-score value was documented for this sequence, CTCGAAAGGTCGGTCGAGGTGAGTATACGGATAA ?
## Output -0.496

## Input What PBM binding z-score value was documented for this sequence, ACTCGGAGGACTAAGGTCAGAGCTACGCCAGTGA ?
## Output -0.00791

## Input What PBM binding z-score value was documented for this sequence, CGAACTAGGTCATCCAGGACAGTCAATACATTGA ?
## Output 0.306

## Input What PBM binding z-score value was documented for this sequence, CCGACTGAGGCAGAAAGGTTACCATACCATCCGG ?
## Output -0.972

## Input What PBM binding z-score value was documented for this sequence, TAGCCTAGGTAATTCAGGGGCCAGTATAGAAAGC ?
## Output -0.53

## Input What PBM binding z-score value was documented for this sequence, CCAACTAGGTCACCGGAAGGTCAAAGTCCGCATG ?
## Output 1.43

## Input What PBM binding z-score value was documented for this sequence, CGTCCAAGGTCACTGCTAGGTCAGTGAAAGCATT ?
## Output 0.283

## Input What PBM binding z-score value was documented for this sequence, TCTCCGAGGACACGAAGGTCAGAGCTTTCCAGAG ?
## Output -0.353

## Input What PBM binding z-score value was documented for this sequence, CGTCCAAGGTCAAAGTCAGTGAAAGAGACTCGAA ?
## Output 1.64

## Input What PBM binding z-score value was documented for this sequence, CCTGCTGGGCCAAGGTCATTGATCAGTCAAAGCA ?
## Output -0.84

## Input What PBM binding z-score value was documented for this sequence, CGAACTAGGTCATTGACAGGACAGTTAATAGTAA ?
## Output 0.0885
